Source: ChEMBL document CHEMBL1201862

Tested on: A498
Test: NCI tumour cell line growth inhibition, 48 h
Active and inactive are the calls of the source. Rule as the data show it: active = GI50 up to about 1.1 µM and inactive = higher.
Classes used: active, inactive

molecule	assigned_class
C/C(=N\NC(=S)NC(C)C)c1nc2cccnc2[nH]1	inactive
OCCCCn1cc(Cn2ncc3c(SCc4ccccc4)ncnc32)nn1	inactive
CC(=O)O[C@@H]1C(=O)N(c2ccccc2)[C@@H]1c1cc2ccccc2c2ccccc12	inactive
O=c1[nH]nc(-c2ccc3ccccc3c2)[nH]1	inactive
C=CCNC(=O)N(CCCC(NC(C)=O)C(=O)NCc1ccccc1)Cc1ccccc1 (stereo unspecified)	inactive
CCCC(=O)NC1CCc2cc(OC)c(OC)c(OC)c2-c2ccc(OC)c(=O)cc21 (stereo unspecified)	active

---

A collection of compounds and their measured GI50
Test system: SW-620
Test: NCI tumour cell line growth inhibition, 48 h
Activity calls are given as the source filed them. Rule as the data show it: active = GI50 up to about 1.1 µM and inactive = higher.

compound	target_or_system	GI50
c1ccc2[nH]c(-c3cscn3)nc2c1 [THIABENDAZOLE]	SW-620	> 100 µM (inactive)
CCO[C@]12CCC[C@H]1[C@@H]1C(=O)c3ccccc3C(=O)C1=C(C)O2	SW-620	37.2 µM (inactive)
CC1=CC(=O)/C(=C/n2c(=S)[nH]c3ccccc32)C(=O)O1	SW-620	> 100 µM (inactive)
O=[N+]([O-])c1ccc(C2c3c(O)nc(S)nc3Oc3nc(S)nc(O)c32)cc1	SW-620	> 100 µM (inactive)
Cc1ccc(S(=O)(=O)N/N=C(\c2nc3ccc(Cl)cc3nc2O)C(O)c2cccc([N+](=O)[O-])c2)cc1 (stereo not given)	SW-620	> 100 µM (inactive)
CCc1cccc(C(C)C)c1NC(=O)C(=O)C(CC(=O)Nc1ccc(Cl)c(Cl)c1)C(=O)OC (stereo not given)	SW-620	10 µM (inactive)
c1ccc(-c2nc3ccccc3n3c(CN4CCCCC4)nnc23)cc1	SW-620	> 100 µM (inactive)
COC1(OC)CC2C=C(S(=O)(=O)c3ccccc3)C1N(Cc1ccccc1)C2=O (stereo not given)	SW-620	22.6 µM (inactive)
c1ccc(-c2nnc(SCc3c[nH]c4ccccc34)n2-c2ccccc2)cc1	SW-620	85.1 µM (inactive)
CCNC(=S)N/N=C(\C)c1cccc(C)n1	SW-620	18.6 µM (inactive)

---

Tested on: LOX IMVI
Test: NCI tumour cell line growth inhibition, 48 h
Active and inactive are the calls of the source. Cut-off read from the data, not from the text of the source: active = GI50 up to about 1.1 µM and inactive = higher.
A collection of compounds and their measured GI50

compound	target_or_system	GI50
c1ccc2sc(SCCSc3nc4ccccc4s3)nc2c1	LOX IMVI	> 100 µM (inactive)
O=c1[nH]c(Br)nc2c(N3CCCCC3)c[nH]c12	LOX IMVI	> 100 µM (inactive)
CO[C@]12C#CC=CC#C[C@@H](O)[C@]3(CCC1)O[C@@]23c1cccc(O)c1	LOX IMVI	> 100 µM (inactive)
CNCCCNC(=S)Cn1cc(C)c(=O)[nH]c1=O	LOX IMVI	> 34.2 µM (inactive)
CCCN(CCC)C(=O)c1c(N2CCN(C)CC2)c2cccnc2n2c(C)cnc12	LOX IMVI	> 100 µM (inactive)
O=C(/C=C/c1ccc[nH]1)c1ccccc1	LOX IMVI	> 100 µM (inactive)
CCC12C=CCN3CC[C@]4(C(=C(C(=O)OC)[C@@H]1Nc1ccn(C5OC(COC(C)=O)C(OC(C)=O)C5OC(C)=O)c(=O)n1)Nc1ccccc14)C32 (stereo partly drawn)	LOX IMVI	4.26 µM (inactive)
O=C(Nc1ccc(Cl)c(Cl)c1)C(=O)C(C1OC(=O)c2ccccc21)[N+](=O)[O-] (stereo not drawn)	LOX IMVI	> 100 µM (inactive)
